meta.source: patent US20240424127A1

Biological target: T1, IL-7 receptor (IL-7Rα/γc heterodimer) on primary human T cells (human, UniProt P16871 21-459; P31785 23-369)
T1 sequence (looked up) 1: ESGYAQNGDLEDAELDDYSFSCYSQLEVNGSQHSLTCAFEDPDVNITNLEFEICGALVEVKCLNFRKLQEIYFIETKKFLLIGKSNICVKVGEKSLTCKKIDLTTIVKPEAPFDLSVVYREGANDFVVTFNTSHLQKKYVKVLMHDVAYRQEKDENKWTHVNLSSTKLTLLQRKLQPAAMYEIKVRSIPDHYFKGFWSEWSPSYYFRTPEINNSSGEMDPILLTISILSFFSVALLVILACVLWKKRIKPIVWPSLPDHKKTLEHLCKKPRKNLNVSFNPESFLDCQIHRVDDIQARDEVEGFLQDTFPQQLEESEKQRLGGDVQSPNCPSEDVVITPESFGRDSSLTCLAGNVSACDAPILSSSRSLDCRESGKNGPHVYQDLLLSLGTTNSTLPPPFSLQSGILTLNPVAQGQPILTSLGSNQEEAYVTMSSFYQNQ
T1 sequence (looked up) 2: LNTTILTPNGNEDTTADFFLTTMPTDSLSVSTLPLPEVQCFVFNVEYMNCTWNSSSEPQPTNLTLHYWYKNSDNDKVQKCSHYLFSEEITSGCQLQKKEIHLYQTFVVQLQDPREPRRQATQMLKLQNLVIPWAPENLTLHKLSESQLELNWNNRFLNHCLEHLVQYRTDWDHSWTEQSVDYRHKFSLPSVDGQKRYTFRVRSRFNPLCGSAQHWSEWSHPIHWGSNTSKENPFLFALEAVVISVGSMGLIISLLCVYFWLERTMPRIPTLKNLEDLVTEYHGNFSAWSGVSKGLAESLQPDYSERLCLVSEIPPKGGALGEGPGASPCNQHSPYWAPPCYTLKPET
Experiment: cell-based or functional assay
Bridges are numbered along the chain shown (N, C = ends). [ ]: non-standard residue; d: D form. glutaryl‑PEG9‑azide = glutaryl-PEG9-azide group on the N-terminal amine; hSer = N[C@@H](CCO)C(=O)O; Nle = CCCC[C@H](N)C(=O)O
Readout Name: EC50 pSTAT5, CD8 Memory (pM)
Only the number, expressed in pM, is required.

Previously resolved entries follow.
# Binder, Unit Tag, EC50 pSTAT5, CD8 Memory
measured = [
    ("CMP-107, synthetic IL-7 V15W of SEQ ID NO: 5 with glutaryl-PEG9-azide at the N-terminus (ligand, disulfide 34-129, 47-141, 2-92, also called synthetic IL-7 with V15W) {glutaryl‑PEG9‑azide}-DCDIEGKDGKQYESWL[Nle]VSIDQLLDS[Nle]KEIGSNCL[hSer]NEFNFFKRHICDANKEG[Nle]FLFRAARKLRQFLK[Nle]NSTGDF[hSer]LHLLKVSEGTTILLNCTGQVKGRKPAALGEAQPTKSL[hSer]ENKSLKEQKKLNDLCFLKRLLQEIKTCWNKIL[Nle]GTKEH-NH2", "pM", 34),
    ("CMP-110, synthetic IL-7 G85N of SEQ ID NO: 7 with glutaryl-PEG9-azide at the N-terminus (ligand, disulfide 34-129, 47-141, 2-92, The suffix is not explained; also called CMP-110-001) {glutaryl‑PEG9‑azide}-DCDIEGKDGKQYESVL[Nle]VSIDQLLDS[Nle]KEIGSNCL[hSer]NEFNFFKRHICDANKEG[Nle]FLFRAARKLRQFLK[Nle]NSTGDF[hSer]LHLLKVSENTTILLNCTGQVKGRKPAALGEAQPTKSL[hSer]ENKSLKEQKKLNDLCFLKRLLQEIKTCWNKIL[Nle]GTKEH-NH2", "pM", 80),
]

Turning now to a further record.
Please fill in: EC50 pSTAT5, CD8 Memory reported for CMP-113, synthetic IL-7 C2A, C92A of SEQ ID NO: 10 with glutaryl-PEG9-azide at the N-terminus (ligand, ends and bridges not checked) {glutaryl‑PEG9‑azide}-DADIEGKDGKQYESVL[Nle]VSIDQLLDS[Nle]KEIGSNCL[hSer]NEFNFFKRHICDANKEG[Nle]FLFRAARKLRQFLK[Nle]NSTGDF[hSer]LHLLKVSEGTTILLNATGQVKGRKPAALGEAQPTKSL[hSer]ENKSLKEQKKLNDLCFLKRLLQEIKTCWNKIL[Nle]GTKEH = 60
